// data source = patent US20240166765A1

# assayed-target: human Tissue Factor on MDA-MB-231 cells (human, UniProt P13726 33-295)
# assay-details: cell-based or functional assay
Give % IL8, 2.56 nM Ab for every item shown.
Numbers only, in %.

Use the examples below as a reference point.
25A5 (antibody, human IgG1, kappa, V domains shown) VH: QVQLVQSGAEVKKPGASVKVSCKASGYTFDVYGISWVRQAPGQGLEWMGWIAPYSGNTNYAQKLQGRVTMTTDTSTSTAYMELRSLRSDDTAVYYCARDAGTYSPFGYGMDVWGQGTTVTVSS VL: DIQMTQSPSTLSASVGDRVTITCRASESISNWLAWYQQKPGKAPKLLIYKAYSLEYGVPSRFSGSGSGTEFTLTISSLQPDDFATYYCQQFQKLPPFTFGGGTKVEIKR | 70
43B (antibody, V domains shown) VH: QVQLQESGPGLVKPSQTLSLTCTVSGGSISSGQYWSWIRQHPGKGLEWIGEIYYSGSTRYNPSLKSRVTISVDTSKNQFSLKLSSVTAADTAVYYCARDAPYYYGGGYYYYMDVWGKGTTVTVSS VL: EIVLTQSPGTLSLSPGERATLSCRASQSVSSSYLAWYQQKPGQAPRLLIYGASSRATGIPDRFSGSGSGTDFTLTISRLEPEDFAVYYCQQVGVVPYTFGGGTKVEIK | 50

Ask: Reported % IL8, 2.56 nM Ab for 43D (antibody, V domains shown) VH: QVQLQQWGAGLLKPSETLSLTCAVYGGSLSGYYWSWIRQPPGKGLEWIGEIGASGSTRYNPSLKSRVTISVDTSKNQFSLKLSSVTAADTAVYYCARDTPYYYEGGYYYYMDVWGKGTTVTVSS VL: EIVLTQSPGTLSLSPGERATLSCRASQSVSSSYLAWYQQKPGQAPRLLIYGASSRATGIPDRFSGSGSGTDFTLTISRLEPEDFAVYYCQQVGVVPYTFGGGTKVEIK : what is it?
Reply: 58
